Where these numbers come from: patent US20240010720A1

Target: T1, human IGSF11 (VSIG3) on cells (human, UniProt Q5DX21 23-431)
T1 sequence: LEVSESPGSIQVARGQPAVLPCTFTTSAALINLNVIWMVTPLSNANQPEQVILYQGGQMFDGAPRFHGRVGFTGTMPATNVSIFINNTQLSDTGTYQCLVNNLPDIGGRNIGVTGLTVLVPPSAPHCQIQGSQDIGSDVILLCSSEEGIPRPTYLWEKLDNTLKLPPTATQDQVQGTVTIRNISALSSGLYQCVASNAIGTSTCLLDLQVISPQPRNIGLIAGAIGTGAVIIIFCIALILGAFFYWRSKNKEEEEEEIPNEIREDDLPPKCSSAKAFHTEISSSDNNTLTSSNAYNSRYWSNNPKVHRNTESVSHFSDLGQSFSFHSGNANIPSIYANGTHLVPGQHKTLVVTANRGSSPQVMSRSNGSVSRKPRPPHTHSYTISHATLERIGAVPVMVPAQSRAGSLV
Assay: FACS, IgG1-format antibodies; CL-11 cells (C), a line that does not express IGSF11 (specificity control), scrambled control siRNA (SC)
measured.property: percentage binding (FACS heat-map) (%)
The response must be a number in % with no trailing unit.

binder	value.reported
A-012 (IgG1 format) (antibody, V domains shown, human IgG1 format) VH: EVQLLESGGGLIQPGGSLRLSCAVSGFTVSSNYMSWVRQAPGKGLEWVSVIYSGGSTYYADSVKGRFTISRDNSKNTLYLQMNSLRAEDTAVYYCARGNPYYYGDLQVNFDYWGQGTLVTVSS VL: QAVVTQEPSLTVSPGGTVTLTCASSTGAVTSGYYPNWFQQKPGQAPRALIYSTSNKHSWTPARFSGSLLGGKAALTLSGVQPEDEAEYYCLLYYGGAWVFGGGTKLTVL	5.11

Shifting focus to the binder that follows.
Ask: Specify percentage binding (FACS heat-map) for A-006 (IgG1 format) (antibody, V domains shown, human IgG1 format; also called A-006-like ABP) VH: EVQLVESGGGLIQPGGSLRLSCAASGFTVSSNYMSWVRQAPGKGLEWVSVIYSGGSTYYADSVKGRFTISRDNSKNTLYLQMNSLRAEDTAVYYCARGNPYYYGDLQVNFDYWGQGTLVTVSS VL: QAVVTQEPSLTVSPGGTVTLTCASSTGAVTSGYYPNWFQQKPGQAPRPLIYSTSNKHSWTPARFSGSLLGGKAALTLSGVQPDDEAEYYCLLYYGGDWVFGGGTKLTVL and stop.
Result: 2.31
